PROTOCOL_TEXT: solvent given as SMILES
MEASUREMENT_CONDITIONS: in Cc1ccccc1
PROPERTY_MEASURED: absorption maximum (nm)
All answers are understood in nm, so give the number only.

[[record]]
sample_smiles = "CC1=[N+]2C(=C(c3ccc(-c4c5ccccc5c(-c5ccccc5)c5ccccc45)cc3)c3ccc(C)n3[B-]2(F)F)C=C1"
property_measured = "absorption maximum"
unit_abbrev = "nm"
experimental_value = 516

[[record]]
sample_smiles = "CCCCCCCCOc1ccc2c3cccc4c(OCCCCCCCC)ccc(c5cccc1c52)c43"
property_measured = "absorption maximum"
unit_abbrev = "nm"
experimental_value = 462

[[record]]
sample_smiles = "CC(C)(C)c1ccc2c(c1)c1cc(C(C)(C)C)ccc1n2-c1ccc(-c2nc3c(C#N)ccc(C#N)c3nc2-c2ccc(-n3c4ccc(C(C)(C)C)cc4c4cc(C(C)(C)C)ccc43)cc2)cc1"
property_measured = "absorption maximum"
unit_abbrev = "nm"
experimental_value = 467


In the following, a different compound is considered.
Given item O=[N+]([O-])c1ccc(-c2nc3c(c4c2-c2ccccc2CC4)-c2ccccc2CC3)cc1 , the value recorded as its absorption maximum is 351
